Biological target: p110α/p85 (Homo sapiens, UniProt P42336)
Sequence (P42336 whole entry, species assumed): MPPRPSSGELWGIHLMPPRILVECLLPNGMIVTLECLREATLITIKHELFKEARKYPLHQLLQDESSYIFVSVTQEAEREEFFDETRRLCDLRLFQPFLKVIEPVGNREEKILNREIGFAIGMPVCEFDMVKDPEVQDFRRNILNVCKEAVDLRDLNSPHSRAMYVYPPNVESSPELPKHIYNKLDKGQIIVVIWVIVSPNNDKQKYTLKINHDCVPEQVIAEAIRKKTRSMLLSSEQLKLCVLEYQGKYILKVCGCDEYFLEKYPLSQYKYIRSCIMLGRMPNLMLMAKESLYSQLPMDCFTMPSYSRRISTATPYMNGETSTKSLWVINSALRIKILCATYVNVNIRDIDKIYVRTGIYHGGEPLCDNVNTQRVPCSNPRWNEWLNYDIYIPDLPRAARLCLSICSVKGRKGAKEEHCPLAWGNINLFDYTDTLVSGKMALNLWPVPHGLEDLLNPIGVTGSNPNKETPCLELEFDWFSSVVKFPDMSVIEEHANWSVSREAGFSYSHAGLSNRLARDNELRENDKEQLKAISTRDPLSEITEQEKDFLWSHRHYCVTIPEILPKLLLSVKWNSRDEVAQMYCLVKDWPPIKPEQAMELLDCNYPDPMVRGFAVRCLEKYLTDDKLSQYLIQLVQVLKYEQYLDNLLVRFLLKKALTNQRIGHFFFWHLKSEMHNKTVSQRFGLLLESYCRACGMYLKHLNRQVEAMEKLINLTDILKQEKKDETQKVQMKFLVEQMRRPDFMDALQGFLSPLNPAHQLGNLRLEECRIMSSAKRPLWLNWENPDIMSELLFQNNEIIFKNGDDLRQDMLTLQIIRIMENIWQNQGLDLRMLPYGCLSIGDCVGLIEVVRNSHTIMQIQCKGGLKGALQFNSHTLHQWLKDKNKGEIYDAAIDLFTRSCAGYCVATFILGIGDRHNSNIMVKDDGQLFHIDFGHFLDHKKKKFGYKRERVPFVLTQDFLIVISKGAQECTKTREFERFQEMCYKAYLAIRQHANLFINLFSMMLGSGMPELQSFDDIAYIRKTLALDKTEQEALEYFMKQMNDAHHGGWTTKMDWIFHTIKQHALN
Sequence (P27986 whole entry partner, species assumed): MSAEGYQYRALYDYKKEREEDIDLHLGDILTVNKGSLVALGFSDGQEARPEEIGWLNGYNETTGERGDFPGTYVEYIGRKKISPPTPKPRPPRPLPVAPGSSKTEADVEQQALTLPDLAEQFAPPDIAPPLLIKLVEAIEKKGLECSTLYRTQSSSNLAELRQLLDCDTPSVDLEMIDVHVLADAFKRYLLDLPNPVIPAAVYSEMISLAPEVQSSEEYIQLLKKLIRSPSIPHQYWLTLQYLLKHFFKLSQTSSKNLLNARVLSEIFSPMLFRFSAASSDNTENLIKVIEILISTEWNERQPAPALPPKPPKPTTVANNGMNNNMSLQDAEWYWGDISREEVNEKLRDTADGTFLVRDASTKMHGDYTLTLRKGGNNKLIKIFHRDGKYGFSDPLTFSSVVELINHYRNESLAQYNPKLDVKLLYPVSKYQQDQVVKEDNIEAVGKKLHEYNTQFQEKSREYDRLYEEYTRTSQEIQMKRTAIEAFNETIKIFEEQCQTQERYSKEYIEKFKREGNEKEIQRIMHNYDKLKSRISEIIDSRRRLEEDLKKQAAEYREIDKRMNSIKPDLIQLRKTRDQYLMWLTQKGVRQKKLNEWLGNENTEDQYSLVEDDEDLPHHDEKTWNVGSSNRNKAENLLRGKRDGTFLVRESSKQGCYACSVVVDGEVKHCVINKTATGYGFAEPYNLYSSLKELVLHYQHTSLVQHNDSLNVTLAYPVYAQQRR
Assay: Inhibition of isolated enzyme, PI 3-kinase p110α/p85
Details: read-out: IC50 (nM) p110α; recombinant enzyme, 100 μM ATP, average of two experiments
Structures can show the parent of a compound that is named as a salt.
parameter: IC50 (nM)

Cc1ccc([N+](=O)[O-])cc1CN(C)N=Cc1cnn2ccc(C#N)cc12 | 41
COc1ccn2ncc(C=NN(C)S(=O)(=O)c3cc([N+](=O)[O-])ccc3C)c2c1 | 230
Cc1ccc([N+](=O)[O-])cc1S(=O)(=O)n1ccc(-c2cnn3ccc(Br)cc23)n1 | 250

[I] Cc1ccc([N+](=O)[O-])cc1S(=O)(=O)NN=Cc1cnn2ccc(C#N)cc12
[II] Cc1ccn2ncc(C=NN(C)S(=O)(=O)c3cc([N+](=O)[O-])ccc3C)c2c1 [E2]
[III] Cc1ccc(C#N)cc1S(=O)(=O)N(CCO)N=Cc1cnn2ccc(C#N)cc12
[IV] CN(N=Cc1cnn2ccc(C#N)cc12)S(=O)(=O)c1cc([N+](=O)[O-])cnc1Cl
[V] CN(N=Cc1cnn2ccc(C#N)cc12)S(=O)(=O)c1cc([N+](=O)[O-])ccc1NCCN1CCOCC1 [E58, hydrochloride]
Data request: Output the entries ranked by IC50 from maximum down to minimum. The response must list the labels following the requested ordering.
Data returned: II, IV, I, V, III
(II: 110 nM, IV: 23 nM, I: 13 nM, V: 9 nM, III: 3 nM)
